FYI, the data here is from patent US20160122426A1.

binders and their reported koff
target: T1, human VEGF (human, UniProt P15692-4 27-191); experiment: SPR (BIAcore X100), VEGF on CM5 chip, IgG injected, 1:1 Langmuir
T1 construct: Bought recombinant protein; also called hVEGF; human VEGF-A
T1 sequence (P15692 other isoform, or with tags, fused parts or gaps limits assumed): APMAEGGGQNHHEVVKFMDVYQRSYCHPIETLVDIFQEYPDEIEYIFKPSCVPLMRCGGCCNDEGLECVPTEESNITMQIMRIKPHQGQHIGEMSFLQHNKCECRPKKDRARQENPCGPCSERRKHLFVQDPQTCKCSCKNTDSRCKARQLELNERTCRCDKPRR

binder	koff
HF2-3 (antibody, V domains shown, also called HF-3) VH: EVQLVESGGGLVQPGGSLRLSCAASHFNMRSHGMQWVRQAPGKGLEYVAGISSDGSWFRVAAAVEGRFTISRDDSKNTAYLQMNSLRAEDTAVYYCARDFSTGYGADSIDAWGQGTLVTVSS VL: DIQMTQSPSSLSASVGDRVTITCSGGSDSAYGYGWYQQKPGKAPKTLIYWDDKRPSGAPSRFSGSRSGTDFTLTISSLQPEDFATYYCGAWEYSGGVGIFGQGTKVEIK	< 1e-06 s⁻¹
HF2-10 (antibody, V domains shown) VH: EVQLVESGGGLVQPGGSLRLSCAASFQYFRSHGMQWVRQAPGKGLEYVAGISSDGSWFRVAAAVEGRFTISRDDSKNTAYLQMNSLRAEDTAVYYCARDFSTGYGADSIDAWGQGTLVTVSS VL: DIQMTQSPSSLSASVGDRVTITCSGGSMEPLGYGWYQQKPGKAPKTLIYWDDKRPSGVPSRFSGSRSGTDFTLTISSLQPEDFATYYCGAWEYSGGVGIFGQGTKVEIK	< 1e-06 s⁻¹
HF2-14 (antibody, V domains shown) VH: EVQLVESGGGLVQPGGSLRLSCAASHSSIRSHGMQWVRQAPGKGLEYVAGISSDGSWLRQDAAVEGRFTISRDDSKNTAYLQMNSLRAEDTAVYYCARDFSTGYGADSIDAWGQGTLVTVSS VL: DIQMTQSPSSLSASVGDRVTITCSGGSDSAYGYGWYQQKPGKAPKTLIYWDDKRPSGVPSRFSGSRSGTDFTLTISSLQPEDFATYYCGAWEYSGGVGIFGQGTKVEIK	< 1e-06 s⁻¹
HF2-6 (antibody, V domains shown) VH: EVQLVESGGGLVQPGGSLRLSCAASRFLLRSHGMQWVRQAPGKGLEYVAGISSDGSWFRVAAAVEGRFTISRDDSKNTAYLQMNSLRAEDTAVYYCARDFSTGYGADSIDAWGQGTLVTVSS VL: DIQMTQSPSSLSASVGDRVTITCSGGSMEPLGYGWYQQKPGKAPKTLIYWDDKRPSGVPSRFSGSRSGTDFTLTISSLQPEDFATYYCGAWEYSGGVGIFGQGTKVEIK	< 1e-06 s⁻¹
HF2-4 (antibody, V domains shown, also called HF-4) VH: EVQLVESGGGLVQPGGSLRLSCAASGWSMRSHGMQWVRQAPGKGLEYVAGISSDGSWRRHSAAVEGRFTISRDDSKNTAYLQMNSLRAEDTAVYYCARDFSTGYGADSIDAWGQGTLVTVSS VL: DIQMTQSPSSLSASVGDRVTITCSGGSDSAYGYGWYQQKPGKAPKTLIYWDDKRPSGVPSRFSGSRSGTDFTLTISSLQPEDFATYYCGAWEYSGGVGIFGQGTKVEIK	3.1e-06 s⁻¹
